TARGET_DESC: human cardiac ion channel proteins hKir3.1/Kir3.4 (Homo sapiens, UniProt P48544+P48549)
Construct: expressed in transfected cells
Sequence (P48549 1-501): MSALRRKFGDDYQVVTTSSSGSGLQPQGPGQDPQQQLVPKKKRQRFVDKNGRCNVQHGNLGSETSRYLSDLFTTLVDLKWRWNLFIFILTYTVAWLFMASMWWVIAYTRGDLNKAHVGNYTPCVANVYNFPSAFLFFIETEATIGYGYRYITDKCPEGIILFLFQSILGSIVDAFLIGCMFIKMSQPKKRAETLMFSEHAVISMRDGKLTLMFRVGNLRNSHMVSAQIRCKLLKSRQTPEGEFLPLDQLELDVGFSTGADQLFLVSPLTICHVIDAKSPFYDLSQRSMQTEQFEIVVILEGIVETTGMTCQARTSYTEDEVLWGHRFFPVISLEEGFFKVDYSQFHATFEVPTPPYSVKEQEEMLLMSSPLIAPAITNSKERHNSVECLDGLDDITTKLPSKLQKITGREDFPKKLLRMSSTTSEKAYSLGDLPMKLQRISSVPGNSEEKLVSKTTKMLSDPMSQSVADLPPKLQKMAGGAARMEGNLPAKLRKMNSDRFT
Sequence (P48544 1-419): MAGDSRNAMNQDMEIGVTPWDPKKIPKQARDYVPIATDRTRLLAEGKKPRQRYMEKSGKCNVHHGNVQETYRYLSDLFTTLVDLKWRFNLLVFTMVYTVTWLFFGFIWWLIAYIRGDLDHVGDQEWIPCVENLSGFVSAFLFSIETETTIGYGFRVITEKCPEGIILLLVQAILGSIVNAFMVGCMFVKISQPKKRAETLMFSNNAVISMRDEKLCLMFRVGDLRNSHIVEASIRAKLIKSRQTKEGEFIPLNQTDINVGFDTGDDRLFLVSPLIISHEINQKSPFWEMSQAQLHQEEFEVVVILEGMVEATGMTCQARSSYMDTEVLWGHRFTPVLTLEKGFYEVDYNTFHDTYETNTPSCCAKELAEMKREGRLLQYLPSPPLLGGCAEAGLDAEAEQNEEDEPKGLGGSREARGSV
PROCEDURE_TEXT: Atomic Absorption Screening (AAS) Rb efflux assay of hKir3.1/Kir3.4 block, carbachol/high K+ stimulated, 10-pt or 7-pt CR
Type: cell-based
ASSAY_SETUP: 10-pt CR (0.003 to 67 μmol/L), AAS Rb efflux, CHO-K1 cells expressing hKir3.1/Kir3.4; mean of >4 replicates; read-out: IKACh IC50 10-pt CR, AAS
PARAMETER_MEASURED: log10 of IC50 (log10 of the value in µM)
The base-10 logarithm of IC50, taken with IC50 in µM, is what appears here.

Solved entries:
{"columns": ["COMPOUND", "TARGET_DESC", "VALUE"],
 "data": [
  ["CCCC[C@@H](CN1CC(O)C1)N(C)C(=O)c1ccc(O)cc1", "human cardiac ion channel proteins hKir3.1/Kir3.4 (Homo sapiens, UniProt P48544+P48549)", 1.04],
  ["Cc1cc(C(=O)N(C)[C@H](CN2CC(O)C2)C2CCC2)ccc1F", "human cardiac ion channel proteins hKir3.1/Kir3.4 (Homo sapiens, UniProt P48544+P48549)", -1.11],
  ["CN(C(=O)c1cc(F)cc(C#N)c1)[C@H](CN1CC(O)C1)C1CCCCC1", "human cardiac ion channel proteins hKir3.1/Kir3.4 (Homo sapiens, UniProt P48544+P48549)", 0.28]
]}

Query: // log10 of IC50 lookup, key: CCC[C@@H](CN1CC(O)C1)N(C)C(=O)c1ccc(C#N)cc1
Result: 0.93

Query: # repeat for CC(C)[C@@H](CN1CC[C@@H](O)C1)N(C)C(=O)c1ccc(Cl)cc1
Result: 1.23

Query: # repeat for CN(C(=O)c1ccc(F)c(Cl)c1)C(CN1CC(O)C1)C1CCCC1 (single isomer, unassigned) [32.7, isomer 2]
Result: -0.80

Query: # repeat for Cc1ccc(C(=O)N(C)[C@H](CN2CCC(F)(F)C2)C(C)C)cc1C
Result: 1.28

Query: # repeat for CN(C(=O)c1ccc(C(F)(F)F)cc1)[C@H](CN1CC(O)C1)C1CCC1
Result: -0.64

Query: # repeat for CC[C@H](C)[C@@H](CN1CCCC1)N(C)C(=O)c1ccc(Cl)cc1
Result: 0.20
